These data points were gathered from patent US8450317B2.

- Study target: UniProt A0A2K5UV19
- Assay explanation: functional cellular assay measuring calcium flux in CXCR3 transfected cells (block of CXCR3/IP-10 interaction)
- Assay type: cell-based, Cyno
Recorded endpoint: pIC50
pIC50 here: minus log base 10 of the concentration, concentration in moles per litre.

Fill in the blank: the reported pIC50 of `COc1ncc(-c2ccccc2N2CC3CCC(C2)N3C(=O)Cn2ccc3cccnc32)cn1` is ____. 8.15

* * *

- Study target: CXCR3 (Macaca fascicularis)
- Sequence (A0A2K5UV19 entry or part of it): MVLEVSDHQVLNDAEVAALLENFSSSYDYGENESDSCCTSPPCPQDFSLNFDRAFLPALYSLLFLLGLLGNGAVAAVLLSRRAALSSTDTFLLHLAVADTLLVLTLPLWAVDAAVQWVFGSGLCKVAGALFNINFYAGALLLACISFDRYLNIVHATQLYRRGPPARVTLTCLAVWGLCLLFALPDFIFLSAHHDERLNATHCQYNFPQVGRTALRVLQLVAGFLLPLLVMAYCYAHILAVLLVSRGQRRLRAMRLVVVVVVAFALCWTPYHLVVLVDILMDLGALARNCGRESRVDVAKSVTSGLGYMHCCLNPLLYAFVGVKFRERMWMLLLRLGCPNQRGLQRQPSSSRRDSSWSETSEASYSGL
- Assay explanation: functional cellular assay measuring calcium flux in CXCR3 transfected cells (block of CXCR3/IP-10 interaction)
- Assay type: cell-based, Cyno
- Condition description: IP-10 induced intracellular calcium flux; Cyno-CHO cells stably expressing recombinant CXCR3 and G-alpha-16; IP-10 at EC80; read-out: IC50
Recorded endpoint: IC50 (µM)
Could you give me the number in µM? Just the number is fine.

Cc1cc(C)n(CC(=O)N2CCN(c3ccccc3-c3cccc(Cl)c3)CC2)n1	0.111
CC1CN(c2ccccc2-c2cnc(S(C)(=O)=O)nc2)CCN1C(=O)Cn1cnc2cccnc21 (stereo not drawn)	0.434
CS(=O)(=O)C1CCN(c2ncc(-c3cc(F)ccc3N3CCN(C(=O)CN4Cc5ccccc5C4=O)CC3)cn2)CC1	0.009
CN1CCN(c2ncc(-c3ccccc3N3CCN(C(=O)Cn4ccc5cccnc54)CC3)cn2)CC1	0.011
O=C(CN1CCCCC1=O)N1CCN(c2ccc(F)cc2-c2cnc(N3CCCC3)nc2)CC1	0.023

Requested read-out: IC50. Entry: `CNc1ncc(-c2cc(Cl)ccc2N2CCN(C(=O)Cn3ccc4cccnc43)CC2)cn1` 0.006

Find the recorded IC50 belonging to `COc1ccc(N2CCN(C(=O)Cn3ccc4cccnc43)CC2)c(-c2cnc(N3CCOCC3)nc2)c1` and report it. 0.009

Requested field: IC50. Item: CC1CN(c2ccccc2-c2cnc(N3CCC(S(C)(=O)=O)CC3)nc2)CCN1C(=O)Cn1ccc2ccncc21 (stereo not drawn) 0.008

* * *

- Study target: CXCR3 (Macaca fascicularis)
- Assay explanation: functional cellular assay measuring calcium flux in CXCR3 transfected cells (block of CXCR3/IP-10 interaction)
- Assay type: cell-based, Cyno
- Condition description: IP-10 induced intracellular calcium flux; Cyno-CHO cells stably expressing recombinant CXCR3 and G-alpha-16; IP-10 at EC80; read-out: IC50
Labelling field: enter class 1 if recorded IC50 is less than 0.01 µM. Enter class 0 if it equals or exceeds that cut-off.

# example entries with known answers
CS(=O)(=O)c1ncc(-c2cc(F)ccc2N2CCN(C(=O)Cn3c(=O)[nH]c4ccccc43)CC2)cn1	class 0
CC1CN(c2ccccc2-c2cnc(N3CCC(O)CC3)nc2)CCN1C(=O)Cn1cnc2cccnc21 (centres unmarked)	class 0
CC1CN(c2ccc(C(F)(F)F)cc2-c2cnc(N3CCC(S(C)(=O)=O)CC3)nc2)CCN1C(=O)CN1CCCCC1=O (centres unmarked)	class 0
Cc1cc(C)n(CC(=O)N2CCN(c3ccccc3-c3ccc4ccn(C)c4c3)CC2)n1	class 0
CC1CN(c2ccccc2-c2cnc(N3CCC(S(C)(=O)=O)CC3)nc2)CCN1C(=O)Cn1c(=O)[nH]c2ccccc21 (centres unmarked)	class 0

Lab log: compare recorded IC50 with 0.01 µM; is it strictly lower for `CN(C)c1ncc(-c2ccccc2N2CCN(C(=O)Cn3ccc4cccnc43)CC2)cn1` ? class 1

Field: below-cutoff. Rule: recorded IC50 strictly less than 0.01 µM. Subject: `COc1cc(NC(=O)c2cc(F)ccc2N2CCN(C(=O)Cn3c(=O)[nH]c4ccccc43)[C@H](C)C2)ccn1` class 1

Field: below-cutoff. Rule: recorded IC50 strictly less than 0.01 µM. Subject: CC1CN(c2ccccc2-c2cnc(N3CCC(S(C)(=O)=O)CC3)nc2)CCN1C(=O)Cn1cnc2cccnc21 (centres unmarked) class 0
